assay.details: Approximate solubility at 25° C. and 50° C. (visual)
Type: physicochemical
condition.set: ethanol, 50 °C, organic solvent or mixture, thermodynamic from solid, Ethanol, 50° C.; read-out: Solubility
measure: solubility

Ask: Using the record for CCN(C)S(=O)(=O)Nc1ccc(F)c(Oc2ccc3ncn([C@H]4COC5(CCN(C(=O)CC6(O)CCN(c7cc8c(cc7F)c(N7CCC(=O)NC7=O)nn8C)CC6)CC5)C4)c(=O)c3c2)c1C#N [Compound 1 Form A] , report its solubility.
Result: < 10000 µg/mL

----------
assay.details: Solubility in aqueous pH buffers and bio-relevant fluids at 37° C.
Format: physicochemical
condition.set: thermodynamic from solid; FeSSIF-v1, pH 5.0, 37° C.
measure: solubility at 2 h (µg/mL)
One number for each entry, in µg/mL.

Ask: Using the record for CCN(C)S(=O)(=O)Nc1ccc(F)c(Oc2ccc3ncn([C@H]4COC5(CCN(C(=O)CC6(O)CCN(c7cc8c(cc7F)c(N7CCC(=O)NC7=O)nn8C)CC6)CC5)C4)c(=O)c3c2)c1C#N [Compound 1 Form B] , report its solubility at 2 h.
Result: 4.8
